test system: HeLa, HepG2, T24, and TOV-21G; assay: MTT cytotoxicity, all evaluated cancer cells (summary); format: cell-based; settings: Homo sapiens, read-out: IC50 values against all evaluated cancer cells
pIC50: −log10 of the molar value.
Readout kind: pIC50

Query: Read off the recorded pIC50 for CCCc1cc(/C=C/C(=O)c2ccc(C)cc2)c(OC)c(OC)c1
Response: 5.23 to 5.52

###

system: T24: human urinary bladder carcinoma cells; assay: MTT cytotoxicity assay on T24 cells; format: cell-based; details: IC50 MRC-5/IC50 T24
Please respond with reported SI (T24) for every item in the list.

Query: Read off the recorded SI (T24) for CCCc1cc(/C=C/C(=O)c2ccccc2)c(O)c(OC)c1 [compound 11]
Response: 1.2

Query: Read off the recorded SI (T24) for CCCc1cc(/C=C/C(=O)c2ccc(C)cc2)c(OC(C)=O)c(OC)c1 [compound 2]
Response: 0.2

Query: Read off the recorded SI (T24) for COc1cc(N)cc(/C=C/C(=O)c2ccc(C)cc2)c1O [compound 8]
Response: 0.2

Query: Read off the recorded SI (T24) for CCCc1cc(/C=C/C(=O)c2ccc(C(=O)/C=C/c3cc(CCC)cc(OC)c3O)cc2)c(O)c(OC)c1 [compound 12]
Response: 3.3

Query: Read off the recorded SI (T24) for CCCc1cc(/C=C/C(=O)c2ccc(C)cc2)c(O)c(OC)c1 [compound 1]
Response: <0.2

###

Please respond with reported log10 of IC50 for every item in the list.
test system: MRC-5: human lung fibroblast cells; assay: MTT cytotoxicity assay on MRC-5 cells; type: cell-based; details: MRC5, 24 h incubation, n = 3, ± standard deviation
Units before log transform: µM; reported quantity: IC50; transform: log10.

Query: Read off the recorded log10 of IC50 for CCCc1cc(/C=C/C(=O)c2ccc(O)cc2)c(O)c(OC)c1 [compound 10]
Response: 0.70

Query: Read off the recorded log10 of IC50 for CCCc1cc(OC)c(O)c(C(=O)/C=C/c2ccc(F)cc2)c1 [compound 18]
Response: 1.06

Query: Read off the recorded log10 of IC50 for CCCc1cc(OC)c(O)c(C(=O)/C=C/c2ccc(C)cc2)c1 [compound 16]
Response: 0.89

Query: Read off the recorded log10 of IC50 for COc1cc([N+](=O)[O-])cc(/C=C/C(=O)c2ccc(C)cc2)c1O [compound 7]
Response: 1.45

Query: Read off the recorded log10 of IC50 for CCCc1cc(/C=C/C(=O)c2ccc(C)cc2)c(OCc2ccccc2)c(OC)c1 [compound 4]
Response: 2.38

Query: Read off the recorded log10 of IC50 for COc1cccc2c1C(=O)c1c(O)c3c(c(O)c1C2=O)C[C@@](O)(C(=O)CO)C[C@@H]3O[C@H]1C[C@H](N)[C@H](O)[C@H](C)O1 [doxorubicin, reference compound]
Response: -0.22

Query: Read off the recorded log10 of IC50 for CCCc1cc(OC)c(O)c(C(=O)/C=C/c2ccccc2)c1 [compound 15]
Response: 1.26

Query: Read off the recorded log10 of IC50 for CCCc1cc(/C=C/C(=O)c2ccccc2)c(O)c(OC)c1 [compound 11]
Response: 1.04

Query: Read off the recorded log10 of IC50 for CCCc1cc(OC)c(O)c(C(=O)/C=C/c2ccc(O)cc2)c1 [compound 17]
Response: 1.10

Query: Read off the recorded log10 of IC50 for COc1cc(N)cc(/C=C/C(=O)c2ccc(C)cc2)c1O [compound 8]
Response: 1.61

Query: Read off the recorded log10 of IC50 for CCCc1cc(/C=C/C(=O)c2ccc(C)cc2)c(OC)c(OC)c1 [compound 3]
Response: 1.74

Query: Read off the recorded log10 of IC50 for CCCc1cc(/C=C/C(=O)c2ccc(C)cc2)c(O)c(OC)c1 [compound 1]
Response: 1.67

Query: Read off the recorded log10 of IC50 for CCCc1cc(/C=C/C(=O)c2ccc(C(=O)/C=C/c3cc(CCC)cc(OC)c3O)cc2)c(O)c(OC)c1 [compound 12]
Response: 1.54

Query: Read off the recorded log10 of IC50 for CCCc1cc(/C=C/C(=O)c2ccc(C)cc2)c(OC(C)=O)c(OC)c1 [compound 2]
Response: 1.21

Values from paper PMC12713470
